- Tested on: Hs-578T
- assay_details: NCI tumour cell line growth inhibition, 48 h
The source made the active and inactive calls. No stated cut-off is given here; in the data, active = GI50 up to about 1.1 µM and inactive = higher.
Please state which outcome applies, choosing from active, inactive

query: Returns: the outcome recorded for O=C1C(NCCc2ccc(O)c([N+](=O)[O-])c2)=CC(=O)c2[nH]cnc21 in this assay.
result: inactive

query: Please let me know the test result on file for CCOC(=O)N(C)C(=C(F)F)C(F)(F)F .
result: inactive

query: Outcome? O=[N+]([O-])c1cc2[nH]nnc2c2nonc12
result: inactive

query: Hi team, can someone confirm the assay call for Nc1nc(N)c(C2=CCNCC2)c(=O)[nH]1 ?
result: inactive

query: Kindly provide the recorded test outcome for the following molecule: Cc1ccc2c(c1)[n+]([O-])c(N)n[n+]2[O-]
result: inactive

query: Please share the test call associated with CC1C(=O)O[B-]2(c3ccccc3)Oc3ccccc3C=[N+]12 (stereo unspecified) .
result: inactive

query: Could you please tell me the result logged for COC(=O)C1Cc2cc3c(cc2C1=O)CCC3 (stereo unspecified) in this assay?
result: inactive

query: Hello, I am checking results. What call was entered for c1csc(C(NC2=NCCO2)C2CC2)c1 (stereo unspecified) ?
result: inactive

query: What is the recorded call for this molecule in the test? COc1cc2c(c(OC)c1OC)-c1ccc(SC)cc1C(=O)CC2
result: active

query: Could you check what this test reported for NC(=O)/C=C/NC(=O)/C=N\O ?
result: inactive

query: # outcome recorded in this test, key = COc1cccc(/C=N/NC(=O)CN(C)C)c1O
result: inactive

---

- System: MDA-N
- assay_details: NCI tumour cell line growth inhibition, 48 h
Calls of active or inactive are those of the source. Cut-off read from the data, not from the text of the source: active = GI50 up to about 1.1 µM and inactive = higher.
A correct response names exactly one class from 1 for active, 0 for inactive

query: Fill in: this test's call for Cc1ccc2nc(SCC(=O)N/N=C3\C(=O)Nc4ccccc43)n(-c3ccccc3)c(=O)c2c1 is ___
result: 0

query: Which outcome was entered for the compound CC1OC2OC3C(OCC(O)C3O)OC(=O)[C@]34CCC(C)(C)CC3C3=CCC5[C@@]6(C)C[C@H](O)[C@H](OC7OC(CO)C(O)C(O)C7OC7OCC(OC(=O)CC(C)(O)CC(=O)OC1C(O)C2O)C(O)C7O)[C@@](C)(CO)C6CC[C@@]5(C)[C@]3(C)CC4 (stereo partly drawn) in this test?
result: 0

query: What call does the record list for O=C(Nc1ccc(S(=O)(=O)/N=c2\ncccn2C(=O)C(C(F)(F)F)C(F)(F)F)cc1)C(C(F)(F)F)C(F)(F)F ?
result: 0

query: Which result was noted for this compound in the test: Cn1c(=O)c2c(ncn2CN2CCN(Cn3cnc4c3c(=O)n(C)c(=O)n4C)CC2)n(C)c1=O
result: 0

query: Field: outcome | Entry: OC1(c2ccccc2)CSC2=Nc3ccccc3C3CCN1N23 (stereo not drawn)
result: 0

query: Called result for COc1cc([N+](=O)[O-])c(S(=O)(=O)O)cc1-n1nc(-c2ccccc2)n[n+]1-c1cc(S(=O)(=O)[O-])c([N+](=O)[O-])cc1OC
result: 0

query: # fetch the recorded call for COc1cccc(/C=N/NC(=O)CN(C)C)c1O here
result: 0

query: Would you mind telling me which call this test gave O=C1CCSSCCC(=O)NCCN1 ?
result: 0

query: Please indicate how the test categorized O=C1Nc2c(Cl)cc(Cl)cc2/C1=N/NC(=O)c1ccncc1 .
result: 0

query: Hi, sorry to bother you, what did the test record for Cc1ccc(S(=O)(=O)N2CCSCCN(S(=O)(=O)c3ccc(C)cc3)CCN(S(=O)(=O)c3ccc(C)cc3)CC2)cc1 ?
result: 0

query: For Cc1ccsc1/C=N/Nc1nncc2ccccc12 , what call appears in the results of this test?
result: 0

query: Please share the test call associated with O=C(N/N=C\c1cccc(O)c1)c1ccncc1 .
result: 0

query: How was CC1(C)N=C(N)N=C(N)N1c1cccc(CSc2ccccc2)c1 classified in this test?
result: 1

---

- Tested on: TK-10
- assay_details: NCI tumour cell line growth inhibition, 48 h
The source made the active and inactive calls. No stated cut-off is given here; in the data, active = GI50 up to about 1.1 µM and inactive = higher.
readout_label: GI50

query: Give the observed GI50 of N/C(=N\c1cccc(Cl)c1)c1ccccc1N for TK-10.
result: > 100 µM (inactive)

query: GET GI50 | system: TK-10 | item: COC(=O)c1ccc2c(c1)CC1(C2)Cc2ccc3c(c2C1)CCC3 (stereo not given)
result: > 100 µM (inactive)

query: Recall the reported GI50 of COC(=O)c1nc2c3c(cccc3c1C(=O)OC)Nc1ccccc1-2 when tested on TK-10.
result: 40.9 µM (inactive)

query: // output GI50; input CC(=O)NCCC1CN(C(=O)/C=C\C#C[Si](C)(C)C)c2ccccc21 (stereo not given) ; system TK-10
result: 23 µM (inactive)

query: Under TK-10: report GI50 of COc1cc2nncc(SCc3ccc(Cl)c(Cl)c3)c2cc1OC .
result: 82.4 µM (inactive)

query: Provide the reported GI50 (system: TK-10) for CN(/N=C/c1ccc(OCc2cccc(COc3ccc(C=O)cc3)n2)cc1)c1cnn(-c2ccc(Cl)cc2Cl)c(=O)c1Cl
result: 64.9 µM (inactive)

query: Return reported GI50 for target or system TK-10, item COc1cc([C@@H]2c3cc4c(cc3[C@@H](NC(=O)c3ccc(C(C)=O)cc3)C3COC(=O)[C@@H]32)OCO4)cc(OC)c1O (stereo not given in full) .
result: 5.81 µM (inactive)

query: Report value only: GI50, TK-10, CC1(C)N=C(N)N=C(N)N1c1cccc(CSc2ccccc2)c1
result: 78.7 µM (inactive)

query: Lab note: TK-10 assay, enter GI50 for C=C1C(=O)OC2C1C(OC(=O)/C(C)=C/C)CC(O)(CCl)C1C(O)C3OC3(C)C21O (stereo not given) here
result: 40.1 µM (inactive)

query: GET GI50 where system = TK-10 and item = COC(=O)C1Cc2c(OC)ccc(OC)c2C(O)C1C(=O)OC (stereo not given)
result: > 100 µM (inactive)

---

- Tested on: SN12C
- assay_details: NCI tumour cell line growth inhibition, 48 h
Activity calls are given as the source filed them. Rule as the data show it: active = GI50 up to about 1.1 µM and inactive = higher. Peptide text beside a SMILES is read from it. * marks the point of attachment. Trt = c1ccc(C(c2ccccc2)(c2ccccc2)*)cc1; Cbz = O=C(OCc1ccccc1)*
Would you mind telling me the reported GI50 of each entry?

query: Name the recorded GI50 of the item CC(=O)NC1=C(OS(=O)(=O)c2ccc(C)cc2)CN(C)C1=O in your answer.
result: 4.37 µM (inactive)

query: For the compound COc1cc(/C=C(\C#N)c2ccccc2)cc(OC)c1 , give its reported GI50.
result: 74.6 µM (inactive)

query: Output GI50 of Cc1nc(=O)n2c(C)n[nH]c2c1C(=O)O
result: > 100 µM (inactive)

query: Supply GI50 value. Item: CC(=O)N[C@@H](Cc1ccc(O)cn1)C(=O)NC1CCCCC1
result: > 100 µM (inactive)

query: Answer with the recorded GI50 for the compound listed here: CC1=CC(C)(C)N=C2SC(c3ccc(N)cc3)=NN12
result: > 95.9 µM (inactive)

query: Answer with the recorded GI50 of COc1ccc2c(c1)[n+]([O-])c(-c1c(Cl)cccc1Cl)c(N)[n+]2[O-] only.
result: 46.1 µM (inactive)

query: Query GI50 for CN(Cc1ccccc1)C(=NC#N)N(C)Cc1ccccc1
result: > 100 µM (inactive)

query: Name the recorded GI50 of the item COc1ccc(CCN(C)C(=O)CC(C#N)(c2ccccc2)c2ccc(OC)c(OC)c2)cc1OC (stereo not given) in your answer.
result: > 100 µM (inactive)

query: Using known records, supply GI50 for COC(=O)C(CO)NC(=O)C(CSC(c1ccccc1)(c1ccccc1)c1ccccc1)NC(=O)OCc1ccccc1 (stereo not given) (Cbz-Cys(Trt)-Ser-OMe; configuration not given here)
result: 13.3 µM (inactive)

query: Input Cc1ccccc1NC(=O)c1cc(-c2ccc([N+](=O)[O-])cc2)nc(S)n1 , output reported GI50.
result: > 100 µM (inactive)

---

- Test system: OVCAR-3
- assay_details: NCI tumour cell line growth inhibition, 48 h
The source made the active and inactive calls. Cut-off read from the data, not from the text of the source: active = GI50 up to about 1.1 µM and inactive = higher.
One label from this list, please: active, inactive

query: Which outcome did this test record for the compound O=C(CSc1nc2ccc(I)cc2c(=O)n1Cc1ccccc1)NNC(=S)Nc1ccccc1 ?
result: inactive

query: I would be grateful if you could indicate the recorded call for C[n+]1c2ccccc2c(NC(CCC(N)=O)C(=O)O)c2ccccc21 (configuration not stated) .
result: inactive

query: Field: outcome | Entry: Clc1ccc2c(NCCCCN3OC3c3ccccc3)ccnc2c1 (configuration not stated)
result: inactive

query: Could you please tell me the result logged for C[C@H]1CC[P+](C)(c2ccccc2)C1 (some centres not stated) in this assay?
result: inactive

query: Could you kindly confirm the outcome this assay logged for N#CC(C(=O)C(=O)Nc1ccc(Cl)cc1)c1ccccc1 (configuration not stated) ?
result: inactive

query: For Cc1noc(/N=C2\C=C(Nc3onc(C)c3C)C(=O)c3ccccc32)c1C , what call appears in the results of this test?
result: inactive

query: Hey, what did the test say about CC1C=CC(O)[C@]2(CO)CC3(CCC12)OCCO3 (some centres not stated) ?
result: inactive

query: Returns: the outcome recorded for COC(=O)C1Cc2c(OC)ccc(OC)c2C(O)C1C(=O)OC (configuration not stated) in this assay.
result: inactive

query: Kindly provide the recorded test outcome for the following compound: CC(=O)NC1=C(OS(=O)(=O)c2ccc(C)cc2)CN(C)C1=O
result: inactive

query: Recorded test outcome, item COC1CC(OC2C(C)OC(OC3C(C)OC(OC4C(O)CC(O[C@H]5CC[C@@]6(C)C(=CC[C@]7(O)[C@@H]6C[C@@H](OC(=O)/C=C/c6ccccc6)[C@@]6(C)[C@]7(O)CC[C@@]6(O)C(C)=O)C5)OC4C)CC3OC)CC2OC)OC(C)C1O (some centres not stated)
result: inactive

query: How did this test come out for Cc1cc(S(=O)(=O)[N-]/C(=N/S(=O)(=O)c2ccc(Cl)cc2)[n+]2ccc(N(C)C)cc2)c(S)cc1Cl ?
result: inactive

query: What outcome does the record of this test show for COc1ccc(-c2cc(-c3ccc(Nc4ccnc5cc(C(F)(F)F)ccc45)cc3)nc(N)c2C#N)c2ccccc12 ?
result: inactive

query: // return assay outcome for COC(=O)C[C@H]1[C@]2(C)C3=C(C)[C@H](c4ccoc4)CC3O[C@@H]2[C@@H]2OC(=O)[C@]3(C)CCC(=O)[C@@]1(C)[C@@H]23 (some centres not stated)
result: inactive

query: Recorded test call requested for O=C(Cc1nc2ccccc2o1)C(=O)Nc1cccc(Cl)c1
result: inactive

query: Could you kindly confirm the outcome this assay logged for COC1OC2COC(=O)c3cc(O)c(O)c(O)c3-c3c(cc(O)c(O)c3O)C(=O)OC2C(O)C1O (configuration not stated) ?
result: inactive

query: For C[C@H]1[C@H](C)CC[C@]2(C(=O)OC3OC(CO)C(O)C(O)C3O)CC[C@]3(C)C(=CC[C@@H]4[C@@]5(C)C[C@@H](O)[C@@H]6OC(=O)c7cc(O)c(O)c(O)c7-c7c(cc(O)c(O)c7O)C(=O)OC[C@]6(CO)[C@@H]5CC[C@]43C)[C@H]12 (some centres not stated) , what call appears in the results of this test?
result: inactive

query: Please state the recorded outcome for this compound: CN(C)CCNc1c2ccccc2c2c3c(cccc13)C(=O)N(CCN(C)C)C2=O
result: active

From: ChEMBL document CHEMBL1201862
